The reported numbers originate from patent US7476756B2.

OBSERVATION TYPE: melting point

The examples below pair each entry with its known result.
COMPOUND | melting point
CCCCC/C=C/CNC(=O)OCC(=O)NC | 80 to 82 °C
CCC/C=C/CNC(=O)OCC(N)=O | 126 to 128 °C
CCCCCCCNC(=O)OCC(=O)NC | 87 to 89 °C
CCCCCCCC/C=C/CCCCCCCCCCNC(=O)OCC(=O)NC | 77 to 79 °C
CCCCCCCCCCCCCCCCCCCNC(=O)OCC(=O)NC [Compound 43] | 113 to 115 °C
CCCCCCCCCCCCC(C)NC(=O)OCC(=O)NC (centres unmarked) | 82 to 84 °C
CC/C=C\CCCCCCCCCCNC(=O)OCC(N)=O | 120 to 123 °C
CC/C=C\CCNC(=O)OCC(=O)NC | 72 to 74 °C
CCCC/C=C\CCNC(=O)OCC(=O)NC | 62 to 64 °C
CNC(=O)COC(=O)NC1CCCCCCCCCCC1 | 171 to 173 °C

In the following, a different compound is considered.
compound CC/C=C\CCCCCCCCCCNC(=O)OCC(=O)NC , melting point observed: 79 to 81 °C

###

melting point values for the molecules below.

MOLECULE | REPORTED VALUE
CCCCCCCCCCC/C=C\CCCCCNC(=O)OCC(=O)NC | 72 to 74 °C

molecule CCCCCCCCCCCCCCCCCCCNC(=O)OCC(=O)NC [Compound 41] , melting point observed: 85 to 87 °C

molecule CC/C=C/CCNC(=O)OCC(N)=O , melting point observed: 138 to 140 °C

molecule CCCCCCCCCNC(=O)OCC(=O)NC , melting point observed: 95 to 97 °C

###

EXPERIMENTAL TARGET: UniProtKB O08914
Sequence (O08914 1-579): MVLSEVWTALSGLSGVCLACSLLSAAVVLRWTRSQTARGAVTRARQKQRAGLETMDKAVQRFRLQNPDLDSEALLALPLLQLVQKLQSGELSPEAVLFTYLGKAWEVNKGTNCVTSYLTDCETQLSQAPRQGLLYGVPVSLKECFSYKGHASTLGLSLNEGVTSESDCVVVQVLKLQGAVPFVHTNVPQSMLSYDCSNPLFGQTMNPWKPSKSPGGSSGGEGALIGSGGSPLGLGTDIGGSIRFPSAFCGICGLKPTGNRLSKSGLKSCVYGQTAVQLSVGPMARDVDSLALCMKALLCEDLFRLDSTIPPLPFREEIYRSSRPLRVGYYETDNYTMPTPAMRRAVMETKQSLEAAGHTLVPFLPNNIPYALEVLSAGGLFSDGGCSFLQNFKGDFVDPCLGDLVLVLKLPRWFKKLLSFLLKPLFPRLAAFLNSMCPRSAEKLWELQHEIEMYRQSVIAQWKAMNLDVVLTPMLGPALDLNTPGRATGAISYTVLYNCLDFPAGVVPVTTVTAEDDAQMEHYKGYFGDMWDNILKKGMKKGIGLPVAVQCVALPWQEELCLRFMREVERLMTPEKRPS
OBSERVATION TYPE: pIC50
pIC50 here is simply -log10 of the concentration when that concentration is written in mol/L.

Let me check: CCCCCCCC/C=C/CCCCCCCCCCNC(=O)OCC(=O)NC , system UniProtKB O08914, measured pIC50 is 6.81

###

OBSERVATION TYPE: melting point

The examples below pair each entry with its known result.
ITEM SMILES | melting point
CCCCCCCCCCC/C=C\CCCCCNC(=O)OCC(N)=O | 100 to 102 °C
CCCC/C=C\CCNC(=O)OCC(N)=O | 113 to 115 °C
CCCCC/C=C/C/C=C/CCCCCCCCCCNC(=O)OCC(=O)NC | 58 to 60 °C

compound CC/C=C/CCNC(=O)OCC(=O)NC , melting point observed: 88 to 90 °C

compound CCC/C=C\CNC(=O)OCC(=O)NC , melting point observed: 74 to 76 °C

compound C=CCCCCCCNC(=O)OCC(=O)NC , melting point observed: 72 to 74 °C

compound CCCCCCCCCCNC(=O)OCC(=O)NC , melting point observed: 98 to 100 °C

compound CCCCCCCCCCCCCCNC(=O)OCC(=O)NC , melting point observed: 106 to 108 °C

compound CCCCC/C=C/CNC(=O)OCC(N)=O , melting point observed: 126 to 128 °C

compound CCCCCC/C=C\CCCCCCCCNC(=O)OCC(=O)NC , melting point observed: 69 to 71 °C

compound CCC/C=C/CNC(=O)OCC(=O)NC , melting point observed: 85 to 87 °C

###

melting point values for the molecules below.

The examples below pair each entry with its known result.
MOLECULE | melting point
CC/C=C\CCCCNC(=O)OCC(=O)NC | 69 to 71 °C
CCCCCCCCNC(=O)OC(C)C(N)=O (centres unmarked) | 130 to 132 °C

molecule CCCCCCNC(=O)OC(C)C(N)=O (centres unmarked) , melting point observed: 123 to 125 °C

###

melting point values for the molecules below.

ITEM SMILES | OBSERVATION TYPE | REPORTED VALUE
CCCCCCNC(=O)OCC(=O)NC | melting point | 86 to 88 °C

molecule CC/C=C/C/C=C/C/C=C/CCCCCCCCCCNC(=O)OCC(=O)NC , melting point observed: 57 to 59 °C

molecule CC/C=C\CCCCNC(=O)OCC(N)=O , melting point observed: 122 to 124 °C

molecule CCCCCCCCCCCCNC(=O)OCC(=O)NC , melting point observed: 103 to 105 °C

###

melting point values for the compounds below.

COMPOUND | REPORTED VALUE
CCCCCNC(=O)OC(C)C(N)=O (centres unmarked) | 132 to 134 °C
CCCCCCCCCCNC(=O)OC(C)C(N)=O (centres unmarked) | 133 to 135 °C
C=CCCCCCCNC(=O)OCC(N)=O | 122 to 124 °C
CCC/C=C\CNC(=O)OCC(N)=O | 102 to 104 °C
CCCCCC/C=C\CCCCCCCCNC(=O)OCC(N)=O | 127 to 129 °C
CCCCCCCCCCCCCCCNC(=O)OCC(=O)NC | 107 to 109 °C
CCCCCCCCCC(C)NC(=O)OCC(=O)NC (centres unmarked) | 71 to 73 °C

compound CNC(=O)COC(=O)NC1CCCCCCC1 , melting point observed: 81 to 83 °C
